// Beta-1,3-glucan synthase (Candida albicans, UniProt O13428) pIC50 records
Numbered stars: 1 amine (or outer) side, 2 acyl side, 3 side chain; on linkers, the order of the positions; unused ones are H or OH. Bridge positions count the residues as written; N and C are the ends. Square brackets hold non-standard residues; d marks the D form. Peptide text beside a SMILES is read from it. * marks the point of attachment. X16 = COC(=O)CCCCCNC(=O)C[C@@H](O)[C@H](N[*:1])C(=O)[*:2]; Orn(4R-OH) = O=C([C@H](C[C@@H](O)CN[*:3])N[*:1])[*:2]; hTyr(3R-OH) = N[C@H](C(=O)O)[C@H](O)Cc1ccc(O)cc1; X11 = COC(=O)C[C@@H](O)[C@H](N[*:1])C(=O)[*:2]; X4 = N=C(S)C[C@@H](O)[C@H](N[*:1])C(=O)[*:2]; Orn(3R-OH) = NCC[C@@H](O)[C@H](N)C(=O)O; Pro(3S-OH) = O=C(O)[C@H]1NCC[C@@H]1O; Hyp = O=C(O)[C@@H]1C[C@@H](O)CN1; X1 = CCC(C)CC(C)CCCCCCCCC(=O)*
Remember, pIC50 is on a log scale: it is -log10 of the molar concentration.

Find the measured pIC50 of CCC(C)CC(C)CCCCCCCCC(=O)N[C@H]1C[C@@H](O)CNC(=O)[C@@H]2[C@@H](O)CCN2C(=O)[C@H]([C@H](O)CC(=N)S)NC(=O)[C@H]([C@H](O)Cc2ccc(O)cc2)NC(=O)[C@@H]2C[C@@H](O)CN2C(=O)[C@H]([C@@H](C)O)NC1=O (stereo partly drawn) (X1-[Orn(4R-OH)]T[Hyp][hTyr(3R-OH)][X4][Pro(3S-OH)]; lactam 1-C) and report it.
6.92

Consider the compound CCC(C)CC(C)CCCCCCCCC(=O)N[C@H]1C[C@@H](O)CNC(=O)[C@@H]2[C@@H](O)CCN2C(=O)[C@H]([C@H](O)CC(=O)NCCCCCC(=O)OC)NC(=O)[C@H]([C@H](O)Cc2ccc(O)cc2)NC(=O)[C@@H]2C[C@@H](O)CN2C(=O)[C@H]([C@@H](C)O)NC1=O (stereo partly drawn) (X1-[Orn(4R-OH)]T[Hyp][hTyr(3R-OH)][X16][Pro(3S-OH)]; lactam 1-C) and give its recorded pIC50.
6.60

Give the reported pIC50 for this compound. CCC(C)CC(C)CCCCCCCCC(=O)N[C@H]1C[C@@H](O)CNC(=O)[C@@H]2[C@@H](O)CCN2C(=O)[C@H]([C@H](O)CCN)NC(=O)[C@H]([C@H](O)Cc2ccc(O)cc2)NC(=O)[C@@H]2C[C@@H](O)CN2C(=O)[C@H]([C@@H](C)O)NC1=O (stereo partly drawn) (X1-[Orn(4R-OH)]T[Hyp][hTyr(3R-OH)][Orn(3R-OH)][Pro(3S-OH)]; lactam 1-C)
8.00

Determine from records and report pIC50 for CCC(C)CC(C)CCCCCCCCC(=O)N[C@H]1C[C@@H](O)CNC(=O)[C@@H]2[C@@H](O)CCN2C(=O)[C@H]([C@H](O)CC(=O)OC)NC(=O)[C@H]([C@H](O)Cc2ccc(O)cc2)NC(=O)[C@@H]2C[C@@H](O)CN2C(=O)[C@H]([C@@H](C)O)NC1=O (stereo partly drawn) (X1-[Orn(4R-OH)]T[Hyp][hTyr(3R-OH)][X11][Pro(3S-OH)]; lactam 1-C)
6.74
